All values here come from patent US12478624B2.

# Test system: A375 cells
# ASSAY: Assay 1: A375 cells treated with S1152, S1008 and compound, immunofluorescence (sc-365823) signal
# Assay type: cell-based
# CONDITION_SUMMARY: 1 μM S1152 + 0.5 μM S1008, one day
PARAMETER: EC50

CC(=O)N1C[C@H](c2nc(Nc3cncc(C)c3)cc(-c3cncc4[nH]ccc34)n2)CC[C@@H]1C (racemic) [Compound 00099]: 200 to 1000 nM
CC(=O)N1C[C@H](c2nc(Nc3ccnc(F)c3)cc(-c3cncc(N4CCCC4=O)c3)n2)CC[C@@H]1C [Compound 00106]: < 200 nM
CC(=O)N1C[C@H](c2nc(Nc3ccnc(C)c3)cc(-c3cncc(N4C[C@@H]5C[C@H]4CO5)c3)n2)CC[C@@H]1C [Compound 00115]: < 200 nM
CC(=O)N1C[C@H](c2nc(Nc3cc(F)cc(-c4cnn(C)c4)c3)cc(-c3cnccn3)n2)CC[C@@H]1C [Compound 00066]: < 200 nM
CC(=O)N1C[C@H](c2nc(Nc3cc(-c4cnn(C)c4)cc(C(F)F)c3)cc(-c3cccnc3)n2)CC[C@@H]1C [Compound 00057]: < 200 nM
CC(=O)N1C[C@H](c2nc(Nc3cc(C)nc(F)c3)cc(-c3cccnc3)n2)CC[C@@H]1C [Compound 00134]: < 200 nM

Please examine the following record next.
Input: Name the reported EC50 value associated with the molecule COCCOc1cncc(-c2cc(Nc3ccnc(F)c3)nc([C@@H]3CC[C@H](C)N(C(C)=O)C3)n2)c1 [Compound 00119]
Output: < 200 nM
